- System: PDR A. baumannii strain YQ4
- TEST_DESCRIPTION: checkerboard synergy, fractional inhibitory concentration (FIC)
- Type: cell-based, Acinetobacter baumannii
- MEASUREMENT_PARAMETERS: checkerboard method, 37°C, 20 h, two independent experiments
READOUT_NAME: FIC with COG1410
Numbers only.

Consider the reported FIC with COG1410 for these compounds:
STRUCTURE | READOUT_NAME | TEST_VALUE
C[C@@H](O)[C@H]1C(=O)N2C(C(=O)O)=C(S[C@@H]3CN[C@H](C(=O)N(C)C)C3)[C@H](C)[C@H]12 | FIC with COG1410 | 0.56
CN(C)[C@@H]1C(O)=C(C(N)=O)C(=O)[C@@]2(O)C(O)=C3C(=O)c4c(O)cccc4[C@@](C)(O)[C@H]3C[C@@H]12 | FIC with COG1410 | 0.31
CC(C)(O/N=C(\C(=O)N[C@@H]1C(=O)N2C(C(=O)[O-])=C(C[n+]3ccccc3)CS[C@H]12)c1csc(N)n1)C(=O)O | FIC with COG1410 | 0.31

Need FIC with COG1410 for each of these compounds.
1. CN(C)c1cc(NC(=O)CNC(C)(C)C)c(O)c2c1C[C@H]1C[C@H]3[C@H](N(C)C)C(O)=C(C(N)=O)C(=O)[C@@]3(O)C(O)=C1C2=O
2. O=C(O)c1cn(C2CC2)c2cc(N3CCNCC3)c(F)cc2c1=O

Out:
1. 1.06
2. 0.8
